Origin of values: paper PMC9579956

target: Mycobacterium thermoresistible (Mtr) LpqY (Mycolicibacterium thermoresistibile, UniProt G7CES0); assay type: binding; conditions: single dose MST screen against LpqY
Sequence (G7CES0 29-471): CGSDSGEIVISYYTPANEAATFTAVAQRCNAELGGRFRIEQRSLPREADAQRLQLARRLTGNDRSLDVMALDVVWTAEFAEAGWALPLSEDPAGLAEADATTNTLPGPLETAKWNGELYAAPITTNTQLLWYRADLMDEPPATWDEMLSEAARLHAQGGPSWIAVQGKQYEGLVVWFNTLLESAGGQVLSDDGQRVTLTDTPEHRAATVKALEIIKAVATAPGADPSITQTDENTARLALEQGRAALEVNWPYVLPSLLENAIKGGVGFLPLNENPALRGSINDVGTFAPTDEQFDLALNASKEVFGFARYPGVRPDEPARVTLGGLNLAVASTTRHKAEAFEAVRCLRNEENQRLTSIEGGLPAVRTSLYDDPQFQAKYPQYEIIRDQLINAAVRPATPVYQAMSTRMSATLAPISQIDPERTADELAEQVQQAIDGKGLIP

| MOLECULE | Pathogen Box screen signal/noise ratio |
| --- | --- |
| CCC(Sc1nc2ccccc2o1)C(=O)Nc1nnc(C)s1 (centres unmarked) | 0.9 |
| c1ccc(Oc2ccc(-c3cc(N4CCOCC4)[nH]n3)cc2)cc1 | 1.1 |
| CCOc1ccc2cc(-c3nn(C(C)(C)C)c(N)c3C(N)=O)cnc2c1 | 3.8 |
| CC(C)c1ncc(-c2ccncc2)c([C@H]2CC[C@H](CNC(=O)c3cccnc3)CC2)n1 | 0.8 |
| CN1CCN(S(=O)(=O)c2ccc(-c3ccc4c(Nc5ccc6nn[nH]c6c5)ccnc4c3)cc2)CC1 | 2.8 |
